The measured values listed here are drawn from patent US20210395354A1.

# assay target: T1, human NGF (his tag) (human, UniProt P01138 122-241, limits assumed)
# T1 construct: Captured on Ni-NTA sensors in the ForteBio Octet assay; also called hNGF; antigen; not shown: his tag
# T1 sequence (P01138 122-241 limits assumed): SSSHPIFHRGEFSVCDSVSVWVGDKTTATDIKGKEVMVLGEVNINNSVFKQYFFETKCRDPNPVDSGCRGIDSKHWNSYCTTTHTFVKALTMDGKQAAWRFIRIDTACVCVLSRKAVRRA
# assay comment: BLI (ForteBio Octet), method of example 4
property label: kon (M⁻¹ s⁻¹)

{"columns": ["binder", "property label", "number"],
 "data": [
  ["humanized antibody AB5C4 (antibody, V domains shown, Humanized from #56 by CDR transplantation) VH: QVQLQESGPGLVKPSETLSLTCTVSGFSLTGYGWGWVRQPPGKGLEWIGSIWADGDTYYNPSLKSRVTISVDTSKNQFSLKLSSVTAADTAVYYCARDSYYYGYNFFDVWGQGTMVTVSS VL: DIQMTQSPSSLSASVGDRVTITCQASQDISNYLNWYQQKPGKAPKLLIYYTSNLESGVPSRFSGSGSGTDFTFTISSLQPEDIATYYCQQGNTLPRTFGGGTKVEIK", "kon", "1.46e+06"],
  ["human mouse chimeric antibody AB5D1 (antibody, V domains shown) VH: QVQLQQSGPELARPGASVKLSCKASGYTFTDYWMQWVKQRPGQGLEWIGTIYPGDGYTRYIQKFKGRATLTADKSSSTAYMQLNSLASEDSAVYYCARRAAYYTMDYWGQGTSVTVSS VL: DIVMTQSHKFMSTSVGDRVSITCKASQDVNTAVAWYQQKPGQSPKLLIYWASTRHTGVPDRFTGSGSGTDYILTISSVQAEDLALYYCQQHYSSPWTFGGGTKLEIT", "kon", "1.46e+06"],
  ["human mouse chimeric antibody AB5C1 (antibody, V domains shown) VH: QVQLKESGPGLVAPSQSLSITCTVSGFSLTGYGVNWVRQPPGKGLEWLGMIWADGDTDYNSALKSRLSISKDNSKSQVFLKVNNLQTDDTARYYCARDSYYYGYNFFDVWGAGTTVTVSS VL: DIQMTQTTSSLSASLGDRVTISCRASQDISNYLNWYQQKPEGTLKLLIYYTSRLHSGVPSRFSGSGSGTDYSLTISSLEQEDIATYFCQQGNTLPRTFGGGTKLEIK", "kon", "1.81e+06"],
  ["humanized antibody AB5D6 (antibody, V domains shown, Humanized from #2 by surface remodeling) VH: QVQLQQSGPEVAKPGASVKLSCKASGYTFTDYWMQWVKQRPGQGLEWIGTIYPGDGYTRYIQKFKGRATLTADKSTSTAYMELNSLASEDSAVYYCARRAAYYTMDYWGQGTSVTVSS VL: DIVMTQSHKFMSTSVGDRVTITCKASQDVNTAVAWYQQKPGQSPKLLIYWASTRHTGVPDRFSGSGSGTDYILTISSVQAEDLALYYCQQHYSSPWTFGGGTKLEIT", "kon", "1.41e+06"],
  ["humanized antibody AB5D5 (antibody, V domains shown, Humanized from #2 by CDR transplantation) VH: QVQLVQSGAEVKKPGASVKVSCKASGYTFTDYWMHWVKQAPGQGLEWMGIIYPGDGYTSYIQKFQGRVTMTRDTSTSTVYMELSSLRSEDTAVYYCARRAAYYTMDYWGQGTLVTVSS VL: DIQMTQSPSSLSASVGDRVTITCRASQDVNTALAWYQQKPGKAPKLLLYWASRLETGVPSRFSGSGSGTDYTLTISSLQPEDLATYYCQQHYSSPWTFGGGTKVEIT", "kon", "1.23e+06"],
  ["humanized antibody AB5D4 (antibody, V domains shown, Humanized from #2 by CDR transplantation) VH: QVQLVQSGAEVKKPGASVKVSCKASGYTFTDYWMHWVKQAPGQGLEWMGIIYPGDGYTSYAQKFQGRVTMTRDTSTSTVYMELSSLRSEDTAVYYCARRAAYYTMDYWGQGTLVTVSS VL: DIQMTQSPSSLSASVGDRVTITCRASQDVNTALAWYQQKPGKAPKLLLYWASRLETGVPSRFSGSGSGTDYTLTISSLQPEDFATYYCQQHYSSPWTFGGGTKVEIT", "kon", "1.78e+06"],
  ["humanized antibody AB5C3 (antibody, V domains shown, Humanized from #56 by CDR transplantation) VH: QVQLQESGPGLVKPSETLSLTCTVSGFSLTGYGWGWIRQPPGKGLEWIGSIWADGDTYYNPSLKSRVTISVDTSKNQFSLKLSSVTAADTAVYYCARDSYYYGYNFFDVWGQGTMVTVSS VL: DIQMTQSPSSLSASVGDRVTITCQASQDISNYLNWYQQKPGKAPKLLIYYTSNLETGVPSRFSGSGSGTDFTFTISSLQPEDIATYYCQQGNTLPRTFGGGTKVEIK", "kon", "1.31e+06"],
  ["humanized antibody AB5C6 (antibody, V domains shown, Humanized from #56 by surface remodeling) VH: QVQLKESGPGLVAPSETLSITCTVSGFSLTGYGVNWVRQPPGKGLEWLGMIWADGDTDYNSALKSRLTISKDNSKSQVFLKVNNLQTDDTARYYCARDSYYYGYNFFDVWGAGTTVTVSS VL: DIQMTQSPSSLSASVGDRVTISCRASQDISNYLNWYQQKPEGTLKLLIYYTSRLHSGVPSRFSGSGSGTDYSLTISSLQQEDIATYFCQQGNTLPRTFGGGTKLEIK", "kon", "1.59e+06"],
  ["humanized antibody AB5D3 (antibody, V domains shown, Humanized from #2 by CDR transplantation) VH: QVQLVQSGAEVKKPGASVKVSCKASGYTFTDYWMHWVRQAPGQGLEWMGIIYPGDGYTSYAQKFQGRVTMTRDTSTSTVYMELSSLRSEDTAVYYCARRAAYYTMDYWGQGTLVTVSS VL: DIQMTQSPSSLSASVGDRVTITCRASQDVNTALAWYQQKPGKAPKLLLYWASRLESGVPSRFSGSGSGTDYTLTISSLQPEDFATYYCQQHYSSPWTFGGGTKVEIT", "kon", "1.49e+06"]
]}
